Give measured ED50 for each item. Keep answers brief.
# Tested on: gastric acid secretion
# EXPERIMENT_DESCRIPTION: Gastric antisecretory activity in the gastric fistula rat
# Format: in vivo, rat (male Long Evans)
# SETUP_CONDITIONS: sc; gastric fistula rat; read-out: ED50 sc
Give just the number in µmol/kg; leave the unit off.

Name the reported ED50 value associated with the molecule Nc1nsnc1NCCCOc1cccc(CN2CCCC2)c1 [Example 4]
0.18

Next record, please: Nc1nsnc1NCCCOc1cccc(CN2CCCCC2)c1 [Example 3]
0.094

Next record, please: CN(C)Cc1ccc(CSCCNc2nsnc2N)o1 [Example 10]
0.77
